B1: library; numbered along this chain (parent)
chain: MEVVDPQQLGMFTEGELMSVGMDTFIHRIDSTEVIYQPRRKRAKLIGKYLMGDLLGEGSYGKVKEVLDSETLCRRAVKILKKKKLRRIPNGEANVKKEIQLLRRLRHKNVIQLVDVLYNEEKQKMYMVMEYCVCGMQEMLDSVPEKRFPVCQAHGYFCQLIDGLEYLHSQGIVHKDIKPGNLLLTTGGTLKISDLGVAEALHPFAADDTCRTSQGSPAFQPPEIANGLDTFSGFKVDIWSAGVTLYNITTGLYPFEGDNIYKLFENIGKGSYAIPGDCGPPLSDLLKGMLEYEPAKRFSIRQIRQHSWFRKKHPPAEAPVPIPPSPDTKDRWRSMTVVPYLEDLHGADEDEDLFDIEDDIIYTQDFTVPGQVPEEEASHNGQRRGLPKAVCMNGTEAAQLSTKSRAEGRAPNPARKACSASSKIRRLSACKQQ

- Variants of: B1
- ASSAY INFO: STK11 functional score (HeLa growth suppression), rescaled enrichment; synonymous median = 1, nonsense median = 0 (normalised score)
- REPORTED CONDITIONS: with HeLa; variant type: missense
Quick rule for you: STK11 functional score under 1 gets class 1, anything else gets class 0.

| MUTANT | DISCRETE LABEL |
| --- | --- |
| L245A | class 1 |
| T186C | class 0 |
| R86D | class 0 |
| P179R | class 1 |
| Q382W | class 0 |
| Y36D | class 0 |
| S307R | class 1 |
| A206I | class 0 |
| D352L | class 0 |
| K48R | class 0 |
| I248V | class 1 |
| G227E | class 1 |
| K122F | class 0 |
| Y118G | class 0 |
| E16F | class 0 |
| E396C | class 0 |
| L263V | class 1 |
| C132G | class 1 |
| F234A | class 0 |
| V77R | class 1 |

Recorded values, source the supplement of paper PMC12338614.
